measured_on: HLA-B*15:17
method_summary: IEDB peptide-MHC binding, purified MHC/competitive/fluorescence; filed as Kd, often an IC50 or EC50 that approximates it; bounds were set here for any values at or beyond the usual limits of such assays
condition_context: source organism: Vibrio vulnificus
measurement_label: Kd

Entry DEWECTRDD — recorded Kd = ≥ 20 µM

----------
measured_on: HLA-A*69:01
method_summary: IEDB peptide-MHC binding, purified MHC/competitive/fluorescence; filed as Kd, often an IC50 or EC50 that approximates it; bounds were set here for any values at or beyond the usual limits of such assays
condition_context: source organism: Escherichia coli O157:H7 str. EDL933
measurement_label: Kd

Entry FIVEHINAM — recorded Kd = 680 nM

----------
measured_on: HLA-B*15:01
method_summary: IEDB peptide-MHC binding, purified MHC/competitive/fluorescence; filed as Kd, often an IC50 or EC50 that approximates it; bounds were set here for any values at or beyond the usual limits of such assays
condition_context: source organism: Mycobacterium tuberculosis variant bovis BCG str. Pasteur 1173P2
measurement_label: Kd

Entry KVMVICYAY — recorded Kd = ≥ 20 µM

----------
measured_on: HLA-A*68:02
method_summary: IEDB peptide-MHC binding, purified MHC/competitive/fluorescence; bounds were set here for any values at or beyond the usual limits of such assays
condition_context: source organism: Homo sapiens
pIC50: −log10 of the molar value.
measurement_label: pIC50

Entry ILNRETLLDFV — recorded pIC50 = ≤ 4.70

----------
measured_on: HLA-A*11:01
method_summary: IEDB peptide-MHC binding, purified MHC/competitive/radioactivity; filed as Kd, often an IC50 or EC50 that approximates it; bounds were set here for any values at or beyond the usual limits of such assays
condition_context: source organism: Lassa virus Josiah
measurement_label: Kd (µM)
Please give a number only; it is taken to be in µM.

Entry TCQGSDDIRK — recorded Kd = 7

----------
measured_on: HLA-B*39:01
method_summary: IEDB peptide-MHC binding, purified MHC/competitive/fluorescence; filed as Kd, often an IC50 or EC50 that approximates it; bounds were set here for any values at or beyond the usual limits of such assays
condition_context: source organism: Mycobacterium tuberculosis C
measurement_label: Kd (nM)
Please give a number only; it is taken to be in nM.

Entry RPAPATGAL — recorded Kd = 4.2

----------
measured_on: HLA-A*69:01
method_summary: IEDB peptide-MHC binding, purified MHC/direct/fluorescence; filed as Kd, often an IC50 or EC50 that approximates it; bounds were set here for any values at or beyond the usual limits of such assays
condition_context: source organism: Vibrio cholerae O139
pKd: −log10 of the molar value.
measurement_label: pKd

Considering EKDSNHNVL , its pKd with HLA-A*69:01 was recorded as ≤ 4.70

----------
measured_on: HLA-B*45:01
method_summary: IEDB peptide-MHC binding, purified MHC/competitive/radioactivity; filed as Kd, often an IC50 or EC50 that approximates it; bounds were set here for any values at or beyond the usual limits of such assays
condition_context: source organism: SARS coronavirus Tor2
pKd: −log10 of the molar value.
Everything with pKd lower than 6 is n; everything else, including exactly 6, is y.

Exercise: Is pKd for SELAKGVAL at or above 6?
Solution: y

Exercise: Is pKd for DEFIQRYKL at or above 6?
Solution: n

Exercise: Is pKd for FEIKSAKKF at or above 6?
Solution: n

Exercise: Is pKd for EEAALCTFL at or above 6?
Solution: y

Exercise: Is pKd for EEGNLLDSYF at or above 6?
Solution: n

Exercise: Is pKd for VEAVMYMGTL at or above 6?
Solution: y

Exercise: Is pKd for QELYSPLFL at or above 6?
Solution: n

Exercise: Is pKd for TENLVIEGPT at or above 6?
Solution: n

Exercise: Is pKd for REVSTAAVT at or above 6?
Solution: y
